# TARGET OF ASSAY: AMPKα2/β1/γ1 (Homo sapiens, UniProt P54646)
# Construct: purchased Carna Biosciences
# Sequence (P54646 whole entry): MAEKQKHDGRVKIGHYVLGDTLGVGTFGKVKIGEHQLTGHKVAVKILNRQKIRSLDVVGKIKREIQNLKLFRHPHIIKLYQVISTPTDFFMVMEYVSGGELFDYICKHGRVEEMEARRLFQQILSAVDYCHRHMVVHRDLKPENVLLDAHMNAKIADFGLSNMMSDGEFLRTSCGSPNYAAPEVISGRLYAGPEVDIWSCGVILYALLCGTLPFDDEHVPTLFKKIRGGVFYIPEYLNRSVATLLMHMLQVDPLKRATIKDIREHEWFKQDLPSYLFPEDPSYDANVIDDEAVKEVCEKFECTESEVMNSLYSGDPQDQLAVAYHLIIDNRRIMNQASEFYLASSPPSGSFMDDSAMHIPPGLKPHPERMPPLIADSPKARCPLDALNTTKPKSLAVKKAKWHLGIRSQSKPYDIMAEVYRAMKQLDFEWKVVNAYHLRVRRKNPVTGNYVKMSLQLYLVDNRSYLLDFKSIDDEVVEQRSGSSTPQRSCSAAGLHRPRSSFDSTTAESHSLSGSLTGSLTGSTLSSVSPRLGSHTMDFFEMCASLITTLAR
# Sequence (Q9Y478 whole entry partner): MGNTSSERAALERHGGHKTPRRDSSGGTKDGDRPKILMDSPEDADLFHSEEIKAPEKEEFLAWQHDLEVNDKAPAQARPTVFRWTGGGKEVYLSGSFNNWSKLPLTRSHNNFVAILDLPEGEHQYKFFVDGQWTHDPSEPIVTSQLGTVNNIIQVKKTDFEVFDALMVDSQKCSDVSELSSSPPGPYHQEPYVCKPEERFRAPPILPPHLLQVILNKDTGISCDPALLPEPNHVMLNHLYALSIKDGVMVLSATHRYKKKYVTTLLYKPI
# Sequence (P54619 whole entry partner): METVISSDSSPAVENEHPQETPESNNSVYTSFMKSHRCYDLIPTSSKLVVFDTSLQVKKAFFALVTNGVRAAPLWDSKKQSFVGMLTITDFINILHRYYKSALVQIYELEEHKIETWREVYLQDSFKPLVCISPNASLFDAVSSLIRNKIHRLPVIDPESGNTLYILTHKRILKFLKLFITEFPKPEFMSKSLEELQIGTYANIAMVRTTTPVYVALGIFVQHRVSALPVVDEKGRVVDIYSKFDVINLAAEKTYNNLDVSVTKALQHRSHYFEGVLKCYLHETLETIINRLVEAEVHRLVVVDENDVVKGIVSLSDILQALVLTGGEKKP
# PROTOCOL SUMMARY: Kinase panel profiling at 1 µmol/L (mobility shift assay, Carna)
# Type: biochemical
# MEASUREMENT SETUP: 1 µmol/L of BTK inhibitor
ASSAY READOUT: Percentage inhibition of kinase enzyme activity

COMPOUND | DATA VALUE
COc1ccc(F)cc1C(=O)NCc1ccc(-c2nn([C@@H](C)C(F)(F)F)c(N)c2C(N)=O)cc1 [pirtobrutinib] | 6.23%
CC#CC(=O)N1CCC[C@H]1c1nc(-c2ccc(C(=O)Nc3ccccn3)cc2)c2c(N)nccn12 [acalabrutinib] | 3.50%
O=C(c1ccc(Oc2ccccc2)cc1Cl)c1c[nH]c2ncnc(N[C@@H]3CC[C@@H](CO)OC3)c12 [nemtabrutinib] | 40.46%
C=CC(=O)N1CCC[C@@H](n2nc(-c3ccc(Oc4ccccc4)cc3)c3c(N)ncnc32)C1 [ibrutinib] | 10.21%

====

# TARGET OF ASSAY: FGFR1 (Homo sapiens, UniProt P11362)

SMILES NOTATION | IC50 (nM)
O=C(c1ccc(Oc2ccccc2)cc1Cl)c1c[nH]c2ncnc(N[C@@H]3CC[C@@H](CO)OC3)c12 | 134

====

# System: SU-DHL-6
# PROTOCOL SUMMARY: Cell viability assay (ATPlite)
# Assay type: cell-based, human
# MEASUREMENT SETUP: SU-DHL-6 cell line, 72 hours incubation
ASSAY READOUT: IC50 (nM)

SMILES NOTATION | DATA VALUE
O=C(c1ccc(Oc2ccccc2)cc1Cl)c1c[nH]c2ncnc(N[C@@H]3CC[C@@H](CO)OC3)c12 | 577

====

# TARGET OF ASSAY: PKN1 (Homo sapiens)
# Construct: purchased Carna Biosciences
# Sequence (Q16512 whole entry): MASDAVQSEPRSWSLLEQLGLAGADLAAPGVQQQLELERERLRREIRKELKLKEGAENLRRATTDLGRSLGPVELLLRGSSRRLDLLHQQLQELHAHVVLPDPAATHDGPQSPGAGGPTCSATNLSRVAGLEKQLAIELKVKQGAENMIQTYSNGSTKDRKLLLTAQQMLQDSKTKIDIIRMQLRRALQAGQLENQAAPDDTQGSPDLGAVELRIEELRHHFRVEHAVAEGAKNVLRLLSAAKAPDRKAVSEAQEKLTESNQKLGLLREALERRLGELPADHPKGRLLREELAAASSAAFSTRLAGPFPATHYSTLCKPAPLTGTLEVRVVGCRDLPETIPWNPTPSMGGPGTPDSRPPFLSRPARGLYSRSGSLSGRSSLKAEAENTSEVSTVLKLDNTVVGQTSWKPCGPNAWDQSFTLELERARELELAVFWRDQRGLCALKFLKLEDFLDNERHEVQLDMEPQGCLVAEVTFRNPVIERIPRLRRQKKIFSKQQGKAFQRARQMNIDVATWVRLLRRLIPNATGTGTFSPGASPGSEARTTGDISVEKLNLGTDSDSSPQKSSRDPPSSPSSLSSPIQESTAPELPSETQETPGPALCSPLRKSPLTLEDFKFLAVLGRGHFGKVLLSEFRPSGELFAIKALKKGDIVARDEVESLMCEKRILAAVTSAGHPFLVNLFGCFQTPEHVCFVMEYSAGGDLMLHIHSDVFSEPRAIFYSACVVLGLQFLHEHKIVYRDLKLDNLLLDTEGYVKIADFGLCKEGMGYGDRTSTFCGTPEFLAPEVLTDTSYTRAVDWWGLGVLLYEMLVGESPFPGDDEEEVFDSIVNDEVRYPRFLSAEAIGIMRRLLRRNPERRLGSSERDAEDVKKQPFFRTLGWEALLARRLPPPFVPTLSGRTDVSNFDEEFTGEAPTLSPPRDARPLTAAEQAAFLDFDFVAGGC
# PROTOCOL SUMMARY: Kinase panel profiling at 1 µmol/L (mobility shift assay, Carna)
# Type: biochemical
# MEASUREMENT SETUP: 1 µmol/L of BTK inhibitor
The entries below come with measured Percentage inhibition of kinase enzyme activity values attached.
ASSAY READOUT: Percentage inhibition of kinase enzyme activity (%)

MOLECULE | DATA VALUE
COc1ccc(F)cc1C(=O)NCc1ccc(-c2nn([C@@H](C)C(F)(F)F)c(N)c2C(N)=O)cc1 [pirtobrutinib] | 15.81
C=CC(=O)N1CCC[C@@H](n2nc(-c3ccc(Oc4ccccc4)cc3)c3c(N)ncnc32)C1 [ibrutinib] | 8.58
O=C(c1ccc(Oc2ccccc2)cc1Cl)c1c[nH]c2ncnc(N[C@@H]3CC[C@@H](CO)OC3)c12 [nemtabrutinib] | 5.57
CC#CC(=O)N1CCC[C@H]1c1nc(-c2ccc(C(=O)Nc3ccccn3)cc2)c2c(N)nccn12 [acalabrutinib] | 11.29

====

# TARGET OF ASSAY: NDR2 (Homo sapiens)
# Construct: purchased Carna Biosciences
# Sequence (Q9Y2H1 whole entry): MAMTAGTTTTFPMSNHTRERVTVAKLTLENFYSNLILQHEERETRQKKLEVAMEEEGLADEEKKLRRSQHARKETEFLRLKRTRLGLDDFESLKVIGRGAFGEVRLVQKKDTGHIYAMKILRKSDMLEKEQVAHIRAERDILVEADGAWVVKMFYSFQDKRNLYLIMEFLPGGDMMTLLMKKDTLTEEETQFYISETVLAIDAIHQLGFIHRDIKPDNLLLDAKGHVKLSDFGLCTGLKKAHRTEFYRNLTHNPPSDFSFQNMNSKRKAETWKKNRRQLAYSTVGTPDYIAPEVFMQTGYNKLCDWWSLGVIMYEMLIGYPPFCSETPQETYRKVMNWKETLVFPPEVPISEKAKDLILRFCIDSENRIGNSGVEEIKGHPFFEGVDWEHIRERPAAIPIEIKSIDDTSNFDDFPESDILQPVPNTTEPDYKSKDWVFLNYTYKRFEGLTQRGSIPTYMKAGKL
# PROTOCOL SUMMARY: Kinase panel profiling at 1 µmol/L (mobility shift assay, Carna)
# Format: biochemical
# MEASUREMENT SETUP: 1 µmol/L of BTK inhibitor
ASSAY READOUT: Percentage inhibition of kinase enzyme activity (%)

MOLECULE | DATA VALUE
C=CC(=O)N1CCC[C@@H](n2nc(-c3ccc(Oc4ccccc4)cc3)c3c(N)ncnc32)C1 [ibrutinib] | 3.47
CC#CC(=O)N1CCC[C@H]1c1nc(-c2ccc(C(=O)Nc3ccccn3)cc2)c2c(N)nccn12 [acalabrutinib] | -6.41
COc1ccc(F)cc1C(=O)NCc1ccc(-c2nn([C@@H](C)C(F)(F)F)c(N)c2C(N)=O)cc1 [pirtobrutinib] | -4.16
C=CC(=O)N1CCC([C@@H]2CCNc3c(C(N)=O)c(-c4ccc(Oc5ccccc5)cc4)nn32)CC1 [zanubrutinib] | 0.50
O=C(c1ccc(Oc2ccccc2)cc1Cl)c1c[nH]c2ncnc(N[C@@H]3CC[C@@H](CO)OC3)c12 [nemtabrutinib] | -0.25

====

# TARGET OF ASSAY: ERK2 (Homo sapiens, UniProt P28482)
# Sequence (P28482 whole entry): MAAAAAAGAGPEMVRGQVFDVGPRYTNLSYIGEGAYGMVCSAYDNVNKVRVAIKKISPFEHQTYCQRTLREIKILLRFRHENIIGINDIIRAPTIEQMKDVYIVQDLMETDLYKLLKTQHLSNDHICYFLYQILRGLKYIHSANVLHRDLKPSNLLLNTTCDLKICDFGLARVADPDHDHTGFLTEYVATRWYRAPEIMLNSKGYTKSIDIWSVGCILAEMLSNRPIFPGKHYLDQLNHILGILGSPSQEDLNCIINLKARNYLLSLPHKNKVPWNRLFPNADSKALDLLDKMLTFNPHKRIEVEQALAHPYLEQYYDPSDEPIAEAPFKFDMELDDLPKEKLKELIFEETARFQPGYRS
pIC50: −log10 of the molar value.
ASSAY READOUT: pIC50

SMILES NOTATION | DATA VALUE
O=C(c1ccc(Oc2ccccc2)cc1Cl)c1c[nH]c2ncnc(N[C@@H]3CC[C@@H](CO)OC3)c12 | 6.30

====

# Test system: BT-20
# PROTOCOL SUMMARY: Cell viability assay (ATPlite)
# Format: cell-based
# MEASUREMENT SETUP: Homo sapiens; BT-20 cell line, 72 hours incubation

SMILES NOTATION | IC50 (µM)
O=C(c1ccc(Oc2ccccc2)cc1Cl)c1c[nH]c2ncnc(N[C@@H]3CC[C@@H](CO)OC3)c12 | 14.5

====

# TARGET OF ASSAY: BLK (Homo sapiens, UniProt P51451)
# Construct: purchased Carna Biosciences
# Sequence (P51451 whole entry): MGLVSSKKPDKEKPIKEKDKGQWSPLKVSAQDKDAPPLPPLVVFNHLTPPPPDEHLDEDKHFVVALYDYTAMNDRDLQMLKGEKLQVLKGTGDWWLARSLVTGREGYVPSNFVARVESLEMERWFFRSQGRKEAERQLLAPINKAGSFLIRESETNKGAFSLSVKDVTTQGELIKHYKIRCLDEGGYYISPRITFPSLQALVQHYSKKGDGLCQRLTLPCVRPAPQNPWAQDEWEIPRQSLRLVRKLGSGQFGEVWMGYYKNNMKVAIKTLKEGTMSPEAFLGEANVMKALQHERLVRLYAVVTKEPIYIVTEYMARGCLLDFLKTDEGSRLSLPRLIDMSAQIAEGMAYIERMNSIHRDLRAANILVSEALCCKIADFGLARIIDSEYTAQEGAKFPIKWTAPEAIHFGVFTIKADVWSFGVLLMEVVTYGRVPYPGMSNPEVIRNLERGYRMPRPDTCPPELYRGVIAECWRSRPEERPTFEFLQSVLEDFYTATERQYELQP
# PROTOCOL SUMMARY: Kinase panel profiling at 1 µmol/L (mobility shift assay, Carna)
# Type: biochemical
# MEASUREMENT SETUP: 1 µmol/L of BTK inhibitor
ASSAY READOUT: Percentage inhibition of kinase enzyme activity (%)

COMPOUND | DATA VALUE
O=C(c1ccc(Oc2ccccc2)cc1Cl)c1c[nH]c2ncnc(N[C@@H]3CC[C@@H](CO)OC3)c12 [nemtabrutinib] | 102.70
C=CC(=O)N1CCC[C@@H](n2nc(-c3ccc(Oc4ccccc4)cc3)c3c(N)ncnc32)C1 [ibrutinib] | 101.19
CC#CC(=O)N1CCC[C@H]1c1nc(-c2ccc(C(=O)Nc3ccccn3)cc2)c2c(N)nccn12 [acalabrutinib] | 8.43
C=CC(=O)N1CCC([C@@H]2CCNc3c(C(N)=O)c(-c4ccc(Oc5ccccc5)cc4)nn32)CC1 [zanubrutinib] | 98.41
COc1ccc(F)cc1C(=O)NCc1ccc(-c2nn([C@@H](C)C(F)(F)F)c(N)c2C(N)=O)cc1 [pirtobrutinib] | 30.87

====

# TARGET OF ASSAY: PKCγ (Homo sapiens, UniProt P05129)
# Construct: purchased Carna Biosciences
# PROTOCOL SUMMARY: Kinase panel profiling at 1 µmol/L (mobility shift assay, Carna)
# Type: biochemical
# MEASUREMENT SETUP: 1 µmol/L of BTK inhibitor
ASSAY READOUT: Percentage inhibition of kinase enzyme activity

SMILES NOTATION | DATA VALUE
O=C(c1ccc(Oc2ccccc2)cc1Cl)c1c[nH]c2ncnc(N[C@@H]3CC[C@@H](CO)OC3)c12 | 0.06%
COc1ccc(F)cc1C(=O)NCc1ccc(-c2nn([C@@H](C)C(F)(F)F)c(N)c2C(N)=O)cc1 | 3.04%
C=CC(=O)N1CCC[C@@H](n2nc(-c3ccc(Oc4ccccc4)cc3)c3c(N)ncnc32)C1 | 0.80%
CC#CC(=O)N1CCC[C@H]1c1nc(-c2ccc(C(=O)Nc3ccccn3)cc2)c2c(N)nccn12 | -7.43%

====

# TARGET OF ASSAY: CK2α2/β (Homo sapiens)
# Construct: purchased Carna Biosciences
# Sequence (P19784 whole entry): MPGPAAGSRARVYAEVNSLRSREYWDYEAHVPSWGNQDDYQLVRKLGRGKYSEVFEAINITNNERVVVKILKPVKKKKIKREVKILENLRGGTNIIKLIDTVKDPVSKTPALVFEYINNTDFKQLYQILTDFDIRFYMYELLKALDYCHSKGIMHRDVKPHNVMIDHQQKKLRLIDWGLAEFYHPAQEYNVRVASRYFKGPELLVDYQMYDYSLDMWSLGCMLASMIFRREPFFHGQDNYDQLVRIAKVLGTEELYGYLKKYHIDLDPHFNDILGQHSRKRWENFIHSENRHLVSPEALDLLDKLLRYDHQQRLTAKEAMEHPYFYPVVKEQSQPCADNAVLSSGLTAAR
# Sequence (P67870 whole entry partner): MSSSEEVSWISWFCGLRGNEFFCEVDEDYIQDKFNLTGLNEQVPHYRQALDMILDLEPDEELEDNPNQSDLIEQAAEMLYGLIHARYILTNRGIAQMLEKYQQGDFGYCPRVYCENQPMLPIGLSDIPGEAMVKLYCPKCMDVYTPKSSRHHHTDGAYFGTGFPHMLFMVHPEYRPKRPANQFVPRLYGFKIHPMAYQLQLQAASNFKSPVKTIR
# PROTOCOL SUMMARY: Kinase panel profiling at 1 µmol/L (mobility shift assay, Carna)
# Type: biochemical
# MEASUREMENT SETUP: 1 µmol/L of BTK inhibitor
ASSAY READOUT: Percentage inhibition of kinase enzyme activity (%)

MOLECULE | UNIT ABBREVIATION | DATA VALUE
COc1ccc(F)cc1C(=O)NCc1ccc(-c2nn([C@@H](C)C(F)(F)F)c(N)c2C(N)=O)cc1 [pirtobrutinib] | % | 4.12
O=C(c1ccc(Oc2ccccc2)cc1Cl)c1c[nH]c2ncnc(N[C@@H]3CC[C@@H](CO)OC3)c12 [nemtabrutinib] | % | -3.55
CC#CC(=O)N1CCC[C@H]1c1nc(-c2ccc(C(=O)Nc3ccccn3)cc2)c2c(N)nccn12 [acalabrutinib] | % | 9.56
C=CC(=O)N1CCC[C@@H](n2nc(-c3ccc(Oc4ccccc4)cc3)c3c(N)ncnc32)C1 [ibrutinib] | % | -7.37

====

# TARGET OF ASSAY: SGK3 (Homo sapiens, UniProt Q96BR1)
# Construct: purchased Carna Biosciences
# Sequence (Q96BR1 whole entry): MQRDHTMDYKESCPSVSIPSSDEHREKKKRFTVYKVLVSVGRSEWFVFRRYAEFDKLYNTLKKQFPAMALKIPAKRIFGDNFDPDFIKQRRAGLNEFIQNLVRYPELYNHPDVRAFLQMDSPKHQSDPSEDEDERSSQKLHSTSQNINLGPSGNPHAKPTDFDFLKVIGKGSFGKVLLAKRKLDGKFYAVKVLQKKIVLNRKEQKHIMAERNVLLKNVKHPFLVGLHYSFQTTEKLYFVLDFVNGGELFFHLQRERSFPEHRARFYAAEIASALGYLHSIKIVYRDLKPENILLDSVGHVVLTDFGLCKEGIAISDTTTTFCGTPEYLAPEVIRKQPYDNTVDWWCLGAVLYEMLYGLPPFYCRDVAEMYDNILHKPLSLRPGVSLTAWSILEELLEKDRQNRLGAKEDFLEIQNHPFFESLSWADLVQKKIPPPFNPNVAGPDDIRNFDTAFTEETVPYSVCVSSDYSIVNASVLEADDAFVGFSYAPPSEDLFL
# PROTOCOL SUMMARY: Kinase panel profiling at 1 µmol/L (mobility shift assay, Carna)
# Format: biochemical
# MEASUREMENT SETUP: 1 µmol/L of BTK inhibitor
Below, each entry is listed with its recorded Percentage inhibition of kinase enzyme activity.
ASSAY READOUT: Percentage inhibition of kinase enzyme activity

SMILES NOTATION | DATA VALUE
O=C(c1ccc(Oc2ccccc2)cc1Cl)c1c[nH]c2ncnc(N[C@@H]3CC[C@@H](CO)OC3)c12 | -3.28%
C=CC(=O)N1CCC[C@@H](n2nc(-c3ccc(Oc4ccccc4)cc3)c3c(N)ncnc32)C1 | 0.58%
COc1ccc(F)cc1C(=O)NCc1ccc(-c2nn([C@@H](C)C(F)(F)F)c(N)c2C(N)=O)cc1 | -2.68%
CC#CC(=O)N1CCC[C@H]1c1nc(-c2ccc(C(=O)Nc3ccccn3)cc2)c2c(N)nccn12 | -11.85%
